Assay: Drug excretion in Sprague-Dawley rat urine at 2.5 mg/kg, iv up to 24 hrs by LC-MS analysis
Assay type: ADME, organism-based
Settings: read-out: Drug excretion
Endpoint Label: dose excreted at 24 h (%)
Dear colleague, please return just the value in %, with no unit written.

Asked: Return reported dose excreted at 24 h; argument: N=C(N)NC(=O)c1nc(Cl)c(N2CCCCCC2)nc1N [N,N-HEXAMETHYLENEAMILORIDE]
Given back: 0.5

###

Test: Plasma clearance in Sprague-Dawley rat at 2.6 mg/kg, iv up to 24 hrs by LC-MS analysis
Format: ADME, organism-based
Endpoint Label: clearance (mL/min/kg)
Dear colleague, please return just the value in mL/min/kg, with no unit written.

Asked: Return reported clearance; argument: `N=C(N)NC(=O)c1nc(-c2cc3ccccc3o2)c(N)nc1N`
Given back: 87.7

###

Experiment: Volume of distribution at steady state in Sprague-Dawley rat plasma at 2.5 mg/kg, iv up to 24 hrs by LC-MS analysis
Assay type: ADME, organism-based
Conditions: read-out: Vdss
Endpoint Label: Vd (L/kg)
Dear colleague, please return just the value in L/kg, with no unit written.

Asked: Return reported Vd; argument: N=C(N)NC(=O)c1nc(Cl)c(N2CCCCCC2)nc1N [N,N-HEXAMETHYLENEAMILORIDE]
Given back: 5.3

###

Test: Clearance in Sprague-Dawley rat renal blood at 2.5 mg/kg, iv up to 24 hrs by LC-MS analysis
Format: ADME, organism-based
Details: whole blood
Endpoint Label: CL renal at 24 h (mL/min/kg)
Dear colleague, please return just the value in mL/min/kg, with no unit written.

Asked: Return reported CL renal at 24 h; argument: N=C(N)NC(=O)c1nc(Cl)c(N2CCCCCC2)nc1N [N,N-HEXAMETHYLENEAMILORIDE]
Given back: 0.2

###

Test: in vitro
Conditions: human, Caco-2
Endpoint Label: Papp A→B at 2 h, 20 µM (×10⁻⁶ cm/s)
Dear colleague, please return just the value in ×10⁻⁶ cm/s, with no unit written.

Previously resolved entries follow.
1. COc1ncc(-c2nc(C(=O)NC(=N)N)c(N)nc2N)cn1
0.57
2. CC(C)NCC(O)COc1cccc2ccccc12 (stereo not given)
49
3. N=C(N)NC(=O)c1nc(Cl)c(N2CCCCCC2)nc1N [N,N-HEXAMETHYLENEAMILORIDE]
15

Asked: Return reported Papp A→B at 2 h, 20 µM; argument: `N=C(N)NC(=O)c1nc(-c2cc3ccccc3o2)c(N2CCCCCC2)nc1N`
Given back: 0.3

Asked: Return reported Papp A→B at 2 h, 20 µM; argument: `COC(=O)c1ccccc1-c1c2ccc(=N)cc-2oc2cc(N)ccc12`
Given back: 1.4

###

Test: Volume of distribution at steady state in Sprague-Dawley rat blood at 3.9 mg/kg, iv up to 24 hrs by LC-MS analysis
Assay type: ADME, organism-based
Details: whole blood, read-out: Vdss
Endpoint Label: Vd (L/kg)
Dear colleague, please return just the value in L/kg, with no unit written.

Asked: Return reported Vd; argument: `N=C(N)NC(=O)c1nc(-c2cc3ccccc3o2)c(N2CCCCCC2)nc1N`
Given back: 8.6

###

Assay: physchem
Settings: octanol/water, pH 7.4
Entries and their logD values follow.
Enter a number only.

1. N=C(N)NC(=O)c1nc(-c2ccc(C(F)(F)F)cc2)c(N)nc1N
2.8
2. N=C(N)NC(=O)c1nc(-c2cc3ccccc3s2)c(N)nc1N
2.9

As a next step, examine the compound that follows.
Asked: Return reported logD; argument: `N=C(N)NC(=O)c1nc(-c2ccco2)c(N)nc1N`
Given back: 1.4

###

Experiment: Clearance in Balb/C mouse blood at 2.6 mg/kg, iv up to 24 hrs by LC-MS analysis
Type: ADME, organism-based
Details: whole blood
Endpoint Label: clearance (mL/min/kg)
Dear colleague, please return just the value in mL/min/kg, with no unit written.

Asked: Return reported clearance; argument: `N=C(N)NC(=O)c1nc(-c2cc3ccccc3o2)c(N2CCCCCC2)nc1N`
Given back: 53

###

Test: cells
Conditions: Homo sapiens, HEK293, 10 min
Endpoint Label: IC50

Previously resolved entries follow.
1. COc1ncc(-c2nc(C(=O)NC(=N)N)c(N)nc2N)cn1
> 30 µM
2. N=C(N)NC(=O)c1nc(-c2cc3ccccc3o2)c(N)nc1N
22 µM
3. N=C(N)NC(=O)c1nc(Cl)c(N2CCCCCC2)nc1N [N,N-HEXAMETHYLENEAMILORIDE]
8.3 µM

Asked: Return reported IC50; argument: `N=C(N)NC(=O)c1nc(-c2cc3ccccc3o2)c(N2CCCCCC2)nc1N`
Given back: < 3 µM

###

Experiment: in vivo
Settings: Balb/C, mouse, po
Endpoint Label: bioavailability at 24 h

Asked: Return reported bioavailability at 24 h; argument: `N=C(N)NC(=O)c1nc(-c2cc3ccccc3o2)c(N)nc1N`
Given back: < 5%

###

Experiment: Ratio of drug level in blood to plasma in Balb/C mouse plasma at 2.5 mg/kg, iv up to 24 hrs by LC-MS analysis
Type: ADME, organism-based
Conditions: whole blood and plasma
Endpoint Label: blood plasma ratio at 24 h

Asked: Return reported blood plasma ratio at 24 h; argument: N=C(N)NC(=O)c1nc(Cl)c(N2CCCCCC2)nc1N [N,N-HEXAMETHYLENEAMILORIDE]
Given back: 1.5

###

Entries and their recovery at 2 h, 20 µM values follow.
Experiment: in vitro
Details: human, Caco-2
Dear colleague, please return just the value in %, with no unit written.

Previously resolved entries follow.
1) N=C(N)NC(=O)c1nc(Cl)c(N2CCCCCC2)nc1N [N,N-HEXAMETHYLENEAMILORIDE]
100
2) COc1ncc(-c2nc(C(=O)NC(=N)N)c(N)nc2N)cn1
97

As a next step, examine the compound that follows.
Asked: Return reported recovery at 2 h, 20 µM; argument: `N=C(N)NC(=O)c1nc(-c2cc3ccccc3o2)c(N2CCCCCC2)nc1N`
Given back: 76

###

Assay: Clearance in Sprague-Dawley rat blood at 2.9 mg/kg, iv up to 24 hrs by LC-MS analysis
Assay type: ADME, organism-based
Conditions: whole blood
Endpoint Label: clearance
Record the result as number plus unit.

Asked: Return reported clearance; argument: `COc1ncc(-c2nc(C(=O)NC(=N)N)c(N)nc2N)cn1`
Given back: 78.9 mL/min/kg

###

Test: Plasma clearance in Sprague-Dawley rat at 2.9 mg/kg, iv up to 24 hrs by LC-MS analysis
Format: ADME, organism-based
Endpoint Label: clearance
Record the result as number plus unit.

Asked: Return reported clearance; argument: `COc1ncc(-c2nc(C(=O)NC(=N)N)c(N)nc2N)cn1`
Given back: 51.3 mL/min/kg

###

Test: AUC(0 to infinity) in Balb/C mouse plasma at 2.5 mg/kg, iv up to 24 hrs by LC-MS analysis
Type: ADME, organism-based
Design: route intravenous, dose 2.5 mg/kg, time <=24
Endpoint Label: AUC(0-inf) (µM·h)
Dear colleague, please return just the value in µM·h, with no unit written.

Asked: Return reported AUC(0-inf); argument: N=C(N)NC(=O)c1nc(Cl)c(N2CCCCCC2)nc1N [N,N-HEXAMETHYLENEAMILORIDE]
Given back: 1.5

###

Experiment: Plasma clearance in Sprague-Dawley rat at 2.5 mg/kg, iv up to 24 hrs by LC-MS analysis
Type: ADME, organism-based
Endpoint Label: clearance
Record the result as number plus unit.

Asked: Return reported clearance; argument: N=C(N)NC(=O)c1nc(Cl)c(N2CCCCCC2)nc1N [N,N-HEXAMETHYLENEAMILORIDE]
Given back: 83.5 mL/min/kg

###

Experiment: Clearance in Sprague-Dawley rat renal blood at 3.9 mg/kg, iv up to 24 hrs by LC-MS analysis
Type: ADME, organism-based
Conditions: whole blood
Endpoint Label: CL renal at 24 h (mL/day/kg)
Dear colleague, please return just the value in mL/day/kg, with no unit written.

Asked: Return reported CL renal at 24 h; argument: `N=C(N)NC(=O)c1nc(-c2cc3ccccc3o2)c(N2CCCCCC2)nc1N`
Given back: 14.4

###

Assay: Apparent half life in Balb/C mouse at 1.9 mg/kg, iv up to 24 hrs by LC-MS analysis
Format: ADME, organism-based
Details: in vivo, read-out: t1/2(app) (converted)
Endpoint Label: half-life (min)
Dear colleague, please return just the value in min, with no unit written.

Asked: Return reported half-life; argument: `COc1ncc(-c2nc(C(=O)NC(=N)N)c(N)nc2N)cn1`
Given back: 37.2

###

Test: Volume of distribution at steady state in Sprague-Dawley rat blood at 2.6 mg/kg, iv up to 24 hrs by LC-MS analysis
Format: ADME, organism-based
Settings: whole blood, read-out: Vdss
Endpoint Label: Vd (L/kg)
Dear colleague, please return just the value in L/kg, with no unit written.

Asked: Return reported Vd; argument: `N=C(N)NC(=O)c1nc(-c2cc3ccccc3o2)c(N)nc1N`
Given back: 8.9
